System: MV4-11
Assay: cells
Details: Homo sapiens, MV4-11, 72 h
Description: Antiproliferative activity against human MV4-11 cells assessed as cell death measured after 72 hrs by resazurin dye based assay
In plain terms, low IC50, meaning strictly below 100 nM, gives Satisfied, and everything else gives Not satisfied.

Solved cases below.
>>> qualitative_label("FC(F)(F)c1n[nH]cc1-c1nc2ccc3sncc3c2c2c1CCCC2")
"Not satisfied"
>>> qualitative_label("FC(F)(F)c1n[nH]cc1-c1nc2ccc3[nH]ncc3c2c2c1COCC2")
"Satisfied"
>>> qualitative_label("Cc1n[nH]c2ccc3nc(-c4c[nH]nc4C(F)(F)F)c4c(c3c12)CCC(C#N)C4 (stereo not given)")
"Satisfied"
>>> qualitative_label("Fc1cc2[nH]ncc2c2c3c(c(-c4cn[nH]c4)nc12)CCCC3")
"Satisfied"
>>> qualitative_label("NCC1CCc2c(c(-c3c[nH]nc3C(F)(F)F)nc3c(F)cc4[nH]ncc4c23)C1 (stereo not given)")
"Not satisfied"

Query block: Answer whether the molecule CN1CCN(CC#Cc2n[nH]c3ccc4nc(-c5c[nH]nc5C(F)(F)F)c5c(c4c23)CCCC5)CC1 has IC50 strictly less than 100 nM
Result block: Not satisfied

Query block: Answer whether the molecule FC(F)(F)c1n[nH]cc1-c1nc2ccc3[nH]ncc3c2c2c1CC(C(F)(F)F)CC2 (stereo not given) has IC50 strictly less than 100 nM
Result block: Satisfied

Query block: Answer whether the molecule Fc1ccc(-c2cc(-c3c[nH]nc3C(F)(F)F)nc3ccc4[nH]ncc4c23)cc1Cl has IC50 strictly less than 100 nM
Result block: Not satisfied

Query block: Answer whether the molecule NC1CCc2c(c(-c3c[nH]nc3C(F)(F)F)nc3ccc4[nH]ncc4c23)C1 (stereo not given) has IC50 strictly less than 100 nM
Result block: Not satisfied

Query block: Answer whether the molecule Cn1cc(-c2nc3ccc4[nH]ncc4c3c3c2CCCC3)c(C2CC2)n1 has IC50 strictly less than 100 nM
Result block: Not satisfied

Query block: Answer whether the molecule FC(F)(F)c1n[nH]cc1-c1nc2ccc3[nH]ncc3c2c2c1CCCCC2 has IC50 strictly less than 100 nM
Result block: Satisfied

Query block: Answer whether the molecule N#CC1CCc2c(c(-c3c[nH]nc3C(F)(F)F)nc3c(F)cc4[nH]ncc4c23)C1 (stereo not given) has IC50 strictly less than 100 nM
Result block: Not satisfied

Query block: Answer whether the molecule Cc1n[nH]cc1-c1nc2c(F)cc3[nH]ncc3c2c2c1CCCC2 has IC50 strictly less than 100 nM
Result block: Not satisfied

###

Tested on: K562
Assay: cells
Settings: Homo sapiens, K562, 72 h
Description: Antiproliferative activity against human K562 cells assessed as cell death measured after 72 hrs by resazurin dye based assay
Each item that follows carries a reported log10(IC50).
The common logarithm of IC50 in µM is what is listed.

Use the examples below as a reference point.
>>> reported_value("CCOC(=O)C1CCc2c(c(-c3c[nH]nc3C(F)(F)F)nc3ccc4[nH]ncc4c23)C1 (stereo not given)")
0.83
>>> reported_value("FC(F)(F)c1n[nH]cc1-c1nc2ccc3[nH]ncc3c2c2c1CCCC2")
0.93
>>> reported_value("OCc1n[nH]c2ccc3nc(-c4c[nH]nc4C(F)(F)F)c4c(c3c12)CCCC4")
0.99
>>> reported_value("N#CC1CCc2c(c(-c3c[nH]nc3C(F)(F)F)nc3c(F)cc4[nH]ncc4c23)C1 (stereo not given)")
0.94

Query block: Which log10(IC50) value is on record for Cc1n[nH]c2ccc3nc(-c4c[nH]nc4C(F)(F)F)c4c(c3c12)CCC(N)C4 (stereo not given) ?
Result block: 1.73

Query block: Which log10(IC50) value is on record for Cc1n[nH]cc1-c1nc2ccc3[nH]nc(C)c3c2c2c1CCCC2 ?
Result block: 1.32

Query block: Which log10(IC50) value is on record for [O-][S+]1CCc2c(c(-c3c[nH]nc3C(F)(F)F)nc3ccc4[nH]ncc4c23)C1 (stereo not given) ?
Result block: 0.93

Query block: Which log10(IC50) value is on record for c1[nH]nnc1-c1nc2ccc3[nH]ncc3c2c2c1CCCC2 ?
Result block: 0.99

Query block: Which log10(IC50) value is on record for FC(F)(F)c1n[nH]cc1-c1cc(-c2ccncc2)c2c(ccc3[nH]ncc32)n1 ?
Result block: 1.89

Query block: Which log10(IC50) value is on record for FC(F)(F)c1n[nH]cc1-c1nc2ccc3sncc3c2c2c1CCCC2 ?
Result block: 1.75
